Biological target: Acid-sensing ion channel 3 (Homo sapiens)
Sequence (Q9UHC3 whole entry): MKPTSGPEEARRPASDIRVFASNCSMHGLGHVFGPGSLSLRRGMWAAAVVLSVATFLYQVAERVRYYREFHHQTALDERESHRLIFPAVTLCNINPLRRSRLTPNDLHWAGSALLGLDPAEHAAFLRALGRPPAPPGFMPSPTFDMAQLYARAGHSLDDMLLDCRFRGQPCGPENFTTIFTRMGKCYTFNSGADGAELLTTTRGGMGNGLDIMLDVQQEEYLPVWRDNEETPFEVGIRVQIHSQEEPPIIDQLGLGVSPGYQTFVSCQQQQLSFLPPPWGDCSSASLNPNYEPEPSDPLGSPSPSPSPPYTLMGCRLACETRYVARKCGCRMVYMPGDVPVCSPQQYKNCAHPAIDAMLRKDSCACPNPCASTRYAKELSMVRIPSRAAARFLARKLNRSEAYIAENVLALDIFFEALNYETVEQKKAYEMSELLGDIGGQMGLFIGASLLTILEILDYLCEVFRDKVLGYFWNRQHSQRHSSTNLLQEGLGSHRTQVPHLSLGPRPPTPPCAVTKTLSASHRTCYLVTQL
Assay: Inhibition of ASIC3 by patch-clamp electrophysiology assay
Measurement type: IC50 (nM)

1 = N=C(N)c1ccc2[nH]c(-c3cc(Cl)cc(NCc4ccccc4)c3)cc2c1
2 = N=C(N)c1ccc2[nH]c(-c3cc(F)cc(Cl)c3)cc2c1
3 = Cc1cc(Cl)cc(-c2cc3cc(C(=N)N)ccc3[nH]2)c1
4 = N=C(N)c1ccc2[nH]c(-c3ccccc3)cc2c1
5 = N=C(N)c1ccc2[nH]c(-c3cc(Cl)cc(Cl)c3Cl)cc2c1
Query :: Arrange the 5 compounds from largest to smallest IC50. Note for the reader: the ranking is given by listing the labels in the order requested.
Result :: 4, 2, 5, 1, 3
(4: 2760 nM, 2: 278 nM, 5: 135 nM, 1: 77 nM, 3: 51 nM)

* * *

molecular target: Acid-sensing ion channel 3 (Homo sapiens) (UniProt Q9UHC3); experiment: Inhibition of ASIC3 at 1 uM by patch-clamp electrophysiology assay relative to baseline peak current
Measurement type: inhibition (%)

INSERT INTO assay_data (chemical_smiles, number) VALUES
  ('N#Cc1c(Cl)cc(-c2cc3cc(C(=N)N)ccc3[nH]2)cc1Cl', 83),
  ('Cc1cc(Cl)cc(-c2cc3cc(C(=N)N)ccc3[nH]2)c1', 87),
  ('N=C(N)c1ccc2[nH]c(-c3cc(Cl)cc(NCc4ccccc4)c3)cc2c1', 91),
  ('N=C(N)c1ccc2[nH]c(-c3cc(Br)cc(Br)c3)cc2c1', 92),
  ('COc1cc(F)cc(-c2cc3cc(C(=N)N)ccc3[nH]2)c1', 77),
  ('N=C(N)c1ccc2[nH]c(-c3cc(Cl)cc(CNc4ccccc4)c3)cc2c1', 83),
  ('N=C(N)c1ccc2[nH]c(-c3cc(N)cc(Cl)c3)cc2c1', 78);

* * *

molecular target: Acid-sensing ion channel 3 (Homo sapiens, UniProt Q9UHC3); assay: Inhibition of ASIC3 by patch-clamp electrophysiology assay
Measurement type: IC50 (nM)

Guide cases for IC50, answers given:
INSERT INTO results (chemical_smiles, units, number) VALUES
  ('COc1cc(F)cc(-c2cc3cc(C(=N)N)ccc3[nH]2)c1', 'nM', 374),
  ('N=C(N)c1ccc2[nH]c(-c3cc(Cl)cc(CNc4ccccc4)c3)cc2c1', 'nM', 114),
  ('N=C(N)c1ccc2[nH]c(-c3cc(Cl)cc(Cl)c3)cc2c1', 'nM', 133),
  ('N=C(N)c1ccc2[nH]c(-c3cc(F)cc(Br)c3)cc2c1', 'nM', 59),
  ('N#Cc1c(Cl)cc(-c2cc3cc(C(=N)N)ccc3[nH]2)cc1Cl', 'nM', 272);

1 = N=C(N)c1ccc2[nH]c(-c3cc(Br)cc(Br)c3)cc2c1
2 = N=C(N)c1ccc2[nH]c(-c3cc(N)cc(Cl)c3)cc2c1
3 = N=C(N)c1ccc2[nH]c(-c3cc(Cl)nc(Cl)c3)cc2c1
Query :: Please order the records by their reported IC50, lowest number first. Note for the reader: the ranking is given by listing the labels in the order requested.
Result :: 1, 2, 3
